Test system: porcine red blood cells (RBC)
Assay: Hemolytic activity (hemoglobin release)
Assay type: cell-based
Settings: 5 μM, dark, 1 hour
READOUT TYPE: Hemolytic activity (%)

INSERT INTO measurements (compound, readout_type, reported_value) VALUES
  ('Cc1c(C)c(C)[c-](C)c1C.F[B-](F)(F)F.c1ccc2cc3nc4c5ccc[n+]6c5c5[c](cccc5c4nc3cc2c1)[Ir]6[n+]1ccn(CCN2CCCCC2)c1 [complex 6, [(η^5-C5Me5) Ir(Imepip)(pbpn)]BF4]', 'Hemolytic activity', 0),
  ('Cc1c(C)c(C)[c-](C)c1C.F[B-](F)(F)F.c1ccc2cc3nc4c5ccc[n+]6c5c5[c](cccc5c4nc3cc2c1)[Ir]6[n+]1cc[nH]c1 [complex 4, [(η^5-C5Me5)Ir(Im)(pbpn)]BF4]', 'Hemolytic activity', 0),
  ('Cc1c(C)c(C)[c-](C)c1C.F[B-](F)(F)F.c1ccc(Cn2cc[n+]([Ir]3[c]4cccc5c6nc7cc8ccccc8cc7nc6c6ccc[n+]3c6c45)c2)cc1 [complex 8, [(η^5-C5Me5)Ir(bzIm)(pbpn)]BF4]', 'Hemolytic activity', 1.0),
  ('N.N.[Cl][Pt][Cl] [Cisplatin, reference compound]', 'Hemolytic activity', 0);

====

Test system: porcine red blood cells (RBC)
Experiment: Hemolytic activity (hemoglobin release)
Assay type: cell-based
Conditions: 25 μM, dark, 1 hour
READOUT TYPE: Hemolytic activity (%)

INSERT INTO assay_data (compound, study_target, reported_value) VALUES
  ('Cc1c(C)c(C)[c-](C)c1C.F[B-](F)(F)F.c1ccc2cc3nc4c5ccc[n+]6c5c5[c](cccc5c4nc3cc2c1)[Ir]6[n+]1cc[nH]c1 [complex 4, [(η^5-C5Me5)Ir(Im)(pbpn)]BF4]', 'porcine red blood cells (RBC)', 6.7),
  ('Cc1c(C)c(C)[c-](C)c1C.F[B-](F)(F)F.c1ccc2cc3nc4c5ccc[n+]6c5c5[c](cccc5c4nc3cc2c1)[Ir]6[n+]1ccn(CCN2CCCCC2)c1 [complex 6, [(η^5-C5Me5) Ir(Imepip)(pbpn)]BF4]', 'porcine red blood cells (RBC)', 10.7),
  ('Cc1c(C)c(C)[c-](C)c1C.F[B-](F)(F)F.c1ccc(Cn2cc[n+]([Ir]3[c]4cccc5c6nc7cc8ccccc8cc7nc6c6ccc[n+]3c6c45)c2)cc1 [complex 8, [(η^5-C5Me5)Ir(bzIm)(pbpn)]BF4]', 'porcine red blood cells (RBC)', 16.3),
  ('N.N.[Cl][Pt][Cl] [Cisplatin, reference compound]', 'porcine red blood cells (RBC)', 0.2);

====

Tested on: porcine red blood cells (RBC)
Assay: Hemolytic activity (hemoglobin release)
Assay type: cell-based
Details: 10 μM, dark, 1 hour
READOUT TYPE: Hemolytic activity (%)

INSERT INTO assay_data (compound, study_target, readout_type, reported_value) VALUES
  ('N.N.[Cl][Pt][Cl] [Cisplatin, reference compound]', 'porcine red blood cells (RBC)', 'Hemolytic activity', 0),
  ('Cc1c(C)c(C)[c-](C)c1C.F[B-](F)(F)F.c1ccc2cc3nc4c5ccc[n+]6c5c5[c](cccc5c4nc3cc2c1)[Ir]6[n+]1cc[nH]c1 [complex 4, [(η^5-C5Me5)Ir(Im)(pbpn)]BF4]', 'porcine red blood cells (RBC)', 'Hemolytic activity', 0.5),
  ('Cc1c(C)c(C)[c-](C)c1C.F[B-](F)(F)F.c1ccc(Cn2cc[n+]([Ir]3[c]4cccc5c6nc7cc8ccccc8cc7nc6c6ccc[n+]3c6c45)c2)cc1 [complex 8, [(η^5-C5Me5)Ir(bzIm)(pbpn)]BF4]', 'porcine red blood cells (RBC)', 'Hemolytic activity', 3.2),
  ('Cc1c(C)c(C)[c-](C)c1C.F[B-](F)(F)F.c1ccc2cc3nc4c5ccc[n+]6c5c5[c](cccc5c4nc3cc2c1)[Ir]6[n+]1ccn(CCN2CCCCC2)c1 [complex 6, [(η^5-C5Me5) Ir(Imepip)(pbpn)]BF4]', 'porcine red blood cells (RBC)', 'Hemolytic activity', 1.0);

====

Test system: A549 cancer cells
Assay: MTT cell viability assay, dark or photoactivated
Type: cell-based, human
Details: A549; green light 530 nm, 24.1 J cm^–2; MTT
READOUT TYPE: PI green light (IC50,dark/IC50,light)

INSERT INTO measurements (compound, reported_value) VALUES
  ('Cc1c(C)c(C)[c-](C)c1C.F[B-](F)(F)F.c1ccc2nc3c4ccc[n+]5c4c4[c](cccc4c3nc2c1)[Ir]5[n+]1ccn(CCN2CCCCC2)c1 [complex 5, [(η^5-C5Me5)Ir(Imepip)(pbpz)]BF4]', 1.6),
  ('Cc1c(C)c(C)[c-](C)c1C.[Cl][Ir]1[c]2cccc3c4nc5ccccc5nc4c4ccc[n+]1c4c23 [complex 1, [(η^5-C5Me5)IrCl(pbpz)]]', 1.4),
  ('Cc1c(C)c(C)[c-](C)c1C.F[B-](F)(F)F.c1ccc2cc3nc4c5ccc[n+]6c5c5[c](cccc5c4nc3cc2c1)[Ir]6[n+]1cc[nH]c1 [complex 4, [(η^5-C5Me5)Ir(Im)(pbpn)]BF4]', 294),
  ('Cc1c(C)c(C)[c-](C)c1C.F[B-](F)(F)F.c1ccc(Cn2cc[n+]([Ir]3[c]4cccc5c6nc7ccccc7nc6c6ccc[n+]3c6c45)c2)cc1 [complex 7, [(η^5-C5Me5)Ir(bzIm)(pbpz)]BF4]', 1.7),
  ('Cc1c(C)c(C)[c-](C)c1C.F[B-](F)(F)F.c1ccc2nc3c4ccc[n+]5c4c4[c](cccc4c3nc2c1)[Ir]5[n+]1cc[nH]c1 [complex 3, [(η^5-C5Me5)Ir(Im)(pbpz)]BF4]', 2.0),
  ('Cc1c(C)c(C)[c-](C)c1C.F[B-](F)(F)F.c1ccc2cc3nc4c5ccc[n+]6c5c5[c](cccc5c4nc3cc2c1)[Ir]6[n+]1ccn(CCN2CCCCC2)c1 [complex 6, [(η^5-C5Me5) Ir(Imepip)(pbpn)]BF4]', 179),
  ('Cc1c(C)c(C)[c-](C)c1C.F[B-](F)(F)F.c1ccc(Cn2cc[n+]([Ir]3[c]4cccc5c6nc7cc8ccccc8cc7nc6c6ccc[n+]3c6c45)c2)cc1 [complex 8, [(η^5-C5Me5)Ir(bzIm)(pbpn)]BF4]', 71);

====

Test system: A549 cancer cells
Test: MTT cell viability assay, dark or photoactivated
Type: cell-based, human
Conditions: A549; 4 h incubation, kept in the dark; viability after 48 h, MTT; read-out: IC50 dark
pIC50: −log10 of the molar value.
READOUT TYPE: pIC50

INSERT INTO assay_data (molecule, reported_value) VALUES
  ('Cc1c(C)c(C)[c-](C)c1C.F[B-](F)(F)F.c1ccc2cc3nc4c5ccc[n+]6c5c5[c](cccc5c4nc3cc2c1)[Ir]6[n+]1ccn(CCN2CCCCC2)c1 [complex 6, [(η^5-C5Me5) Ir(Imepip)(pbpn)]BF4]', 5.70),
  ('Cc1c(C)c(C)[c-](C)c1C.F[B-](F)(F)F.c1ccc2nc3c4ccc[n+]5c4c4[c](cccc4c3nc2c1)[Ir]5[n+]1ccn(CCN2CCCCC2)c1 [complex 5, [(η^5-C5Me5)Ir(Imepip)(pbpz)]BF4]', 6.08),
  ('N.N.[Cl][Pt][Cl] [Cisplatin, reference compound]', 5.05),
  ('Cc1c(C)c(C)[c-](C)c1C.F[B-](F)(F)F.c1ccc(Cn2cc[n+]([Ir]3[c]4cccc5c6nc7ccccc7nc6c6ccc[n+]3c6c45)c2)cc1 [complex 7, [(η^5-C5Me5)Ir(bzIm)(pbpz)]BF4]', 6.11),
  ('Cc1c(C)c(C)[c-](C)c1C.F[B-](F)(F)F.c1ccc2nc3c4ccc[n+]5c4c4[c](cccc4c3nc2c1)[Ir]5[n+]1cc[nH]c1 [complex 3, [(η^5-C5Me5)Ir(Im)(pbpz)]BF4]', 5.31),
  ('Cc1c(C)c(C)[c-](C)c1C.F[B-](F)(F)F.c1ccc2cc3nc4c5ccc[n+]6c5c5[c](cccc5c4nc3cc2c1)[Ir]6[n+]1cc[nH]c1 [complex 4, [(η^5-C5Me5)Ir(Im)(pbpn)]BF4]', 5.54);

====

Test: 1O2 quantum yield determination with DPBF
Conditions: acetonitrile; λir = 530 nm
READOUT TYPE: Slope (S) of ‐ln(normalized Abs) vs time, photooxidation of DPBF

INSERT INTO measurements (molecule, reported_value) VALUES
  ('Cc1c(C)c(C)[c-](C)c1C.F[B-](F)(F)F.c1ccc2cc3nc4c5ccc[n+]6c5c5[c](cccc5c4nc3cc2c1)[Ir]6[n+]1cc[nH]c1 [complex 4, [(η^5-C5Me5)Ir(Im)(pbpn)]BF4]', 0.0058),
  ('[Cl][Ru][Cl].c1ccc(-c2ccccn2)nc1.c1ccc(-c2ccccn2)nc1.c1ccc(-c2ccccn2)nc1 [[Ru(bpy)3]Cl2, reference compound]', 0.0057),
  ('Cc1c(C)c(C)[c-](C)c1C.F[B-](F)(F)F.c1ccc2cc3nc4c5ccc[n+]6c5c5[c](cccc5c4nc3cc2c1)[Ir]6[n+]1ccn(CCN2CCCCC2)c1 [complex 6, [(η^5-C5Me5) Ir(Imepip)(pbpn)]BF4]', 0.0069),
  ('Cc1c(C)c(C)[c-](C)c1C.F[B-](F)(F)F.c1ccc(Cn2cc[n+]([Ir]3[c]4cccc5c6nc7cc8ccccc8cc7nc6c6ccc[n+]3c6c45)c2)cc1 [complex 8, [(η^5-C5Me5)Ir(bzIm)(pbpn)]BF4]', 0.0061);
